assay.comment: JHH-DIPG-1 glioma cell viability, MIPE5.0 library, CellTiter-Glo luminescence, qHTS (AID 1347067);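 note: cells exposed to compound for 48 hours before readout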
particulars: JHH-DIPG-1 glioma viability, CellTiter-Glo ATP luminescence
Records with an inconclusive call do not appear. Calls of active or inactive are those of the source. No cut-off is given here; in the data, nearly all actives have AC50 up to about 26 µM.
Please reply with one of these outcomes: active, inactive

Prompt: Can you look up the reported call for NC(=NCCCCCCN=C(N)N=C(N)Nc1ccc(Cl)cc1)N=C(N)Nc1ccc(Cl)cc1 for me?
Completion: active

Prompt: Test call, this molecule: CC(C)C[C@@H]1NC(=O)[C@@H](C(C)C)NC(=O)[C@@H]2CCCN2C(=O)[C@@H](CC(=O)O)NC(=O)[C@@H](Cc2c[nH]c3ccccc23)NC1=O
Completion: inactive

Prompt: Tell me the recorded outcome of this test for O=C(O)CCC1CCC(c2cc(F)ccc2F)(S(=O)(=O)c2ccc(Cl)cc2)CC1 (stereo not drawn) .
Completion: inactive

Prompt: # fetch the recorded call for CC1(C)OC2=C(C(=O)c3ccccc3C2=O)[C@H](NCc2ccccc2)[C@@H]1O here
Completion: active

Prompt: Record lookup: outcome of this test for CCOc1ccccc1N=Nc1c(C)[nH]n(-c2nc(-c3ccccc3)cs2)c1=O ?
Completion: inactive

Prompt: Could you please tell me the result logged for C[C@@]1(c2cc(-c3cncnc3)c(F)cc2F)CCSC(N)=N1 in this assay?
Completion: inactive

Prompt: Each molecule tested received a call. Report the one for C#Cc1cccc(Nc2ncnc3cc(OC)c(OCCCCCCC(=O)NO)cc23)c1 .
Completion: active

Prompt: Per the records of this test, what outcome belongs to CN(C)CC[C@H](CSc1ccccc1)Nc1ccc(S(=O)(=O)NC(=O)c2ccc(N3CCN(Cc4ccccc4-c4ccc(Cl)cc4)CC3)cc2)cc1[N+](=O)[O-] ?
Completion: active

* * *

assay.comment: growth inhibition, single agent and combos, cell-based, chromothripsis tumors, cisplatin or BGB combos (AID 1671450);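 note: cells exposed to compound for four days; 0% = vehicle DMSO and 100% = cell killing by high DMSO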
particulars: HDN33 neuroblastoma cells, measured here: with cisplatin IC20 combination, at 0.5 µM, stronger effect = higher value
Param threshold (20%) applies to inhibition; output rule met when value >= threshold, rule not met when value < threshold.

Worked examples follow.
chemical.smiles	cat
COc1ccc(C(=O)C2CCN(CC(=O)N(Cc3nc4c(c(=O)[nH]3)COCC4)CC3CC3)CC2)cc1	rule met
CO[C@H]1/C=C/O[C@@]2(C)Oc3c(C)c(O)c4c(O)c(c(/C=N\N5CCN(C6CCCC6)CC5)c(O)c4c3C2=O)NC(=O)/C(C)=C\C=C\[C@H](C)[C@H](O)[C@@H](C)[C@@H](O)[C@@H](C)[C@H](OC(C)=O)[C@@H]1C	rule not met
O=C(O)[C@H](Cc1c[nH]c2ccccc12)N1C(=O)c2ccccc2C1=O	rule not met
O=C(/C=C/c1ccc(CN(CCO)CCc2c[nH]c3ccccc23)cc1)NO	rule met
Cc1cn([C@@H]2O[C@H](CO)[C@@H](O)[C@@H]2F)c(=O)[nH]c1=O	rule met
COc1ccc(-n2c(SCCCN3C(=O)c4cccc5cccc(c45)C3=O)nnc2-c2ccncc2)cc1	rule not met

Prompt: Is inhibition for O=c1[nH]c([C@@H]2CCCN2)nc2c1oc1ccc(Cl)cc12 at or above 20%?
Completion: rule not met

Prompt: Quick check, inhibition >= 20%? CC(=O)Nc1ccc(C(=O)Nc2ccccc2N)cc1
Completion: rule not met

* * *

assay.comment: MELAS cybrid and Rieske KO viability enhancers – cell-based, MELAS cybrids, Rieske KO mouse fibroblasts, CellTiter-Glo, primary screen (AID 1508586);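 note: z relative to plate mean and SD of compound and empty wells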
particulars: Rieske KO mouse fibroblast survival, low glucose, CellTiter-Glo 72 h
Label T for high-side z-score (at or above 0.5) and F for low-side z-score (below it).

molecule	cat
Cc1cc(C(C)Nc2ccccc2)c2nc(N3CCOCC3)cc(=O)n2c1 (stereo unspecified)	T

Prompt: Check the entry CCC(=O)Nc1cccc(Oc2nc(Nc3ccc(N4CCN(C)CC4)cc3OC)ncc2Cl)c1 : does z-score equal or exceed 0.5?
Completion: T

Prompt: Say whether CC(C)(OCc1nn(Cc2ccccc2)c2ccccc12)C(=O)O shows z-score of 0.5 or more.
Completion: F

Prompt: Entry COc1ccccc1N1CCN(CCCCNC(=O)c2ccc3ccccc3c2)CC1 : is its z-score no less than 0.5?
Completion: F

Prompt: Could you verify whether the entry O=C(O)Cn1nnc(-c2cc(N3CCC(Oc4cc(F)ccc4Br)CC3)no2)n1 shows z-score of no less than 0.5?
Completion: T

Prompt: Record NC(=O)c1sc(-c2ccsc2)cc1N ; criterion: z-score no lower than 0.5. Met?
Completion: F

Prompt: Hi, just wondering whether CC(C)n1nc(-c2cc3cc(O)ccc3[nH]2)c2c(N)ncnc21 shows z-score of 0.5 or higher.
Completion: F

Prompt: Reported z-score reaches at least 0.5 for CS(=O)(=O)c1ccc(-c2cnc(N)c(C(=O)Nc3ccccc3)n2)cc1 ?
Completion: T

Prompt: Reported z-score reaches at least 0.5 for Nc1ncnc2c1c(-c1cccc(OCc3ccccc3)c1)cn2C1CC(CN2CCC2)C1 (stereo unspecified) ?
Completion: F

Prompt: Evaluate O=C1c2c(O)cc(O)cc2OC(c2ccc(O)c(O)c2)C1O (stereo unspecified) : z-score at minimum 0.5?
Completion: T

Prompt: # check: z-score of COc1cc(Nc2nc3ccccc3nc2NS(=O)(=O)c2ccc(NC(=O)c3ccc(C)c(OC)c3)cc2)cc(OC)c1 is greater than or equal to 0.5
Completion: F

Prompt: Check this molecule for z-score at or above 0.5: N#CC1(c2ccc(NC(=O)c3cccnc3NCc3ccncc3)cc2)CCCC1
Completion: T

Prompt: Form field: z-score at least 0.5? Entry: Cc1ccc(S(=O)(=O)Nc2nc3ccccc3nc2Nc2ccc3nsnc3c2)cc1
Completion: F

Prompt: Check the entry NC(=O)c1ccc(I)c([N+](=O)[O-])c1 : does z-score equal or exceed 0.5?
Completion: T

Prompt: Exam item: decide whether the reported z-score for O=C(c1ccc(C(=O)N2CCC(N3CCCC3)CC2)c(Nc2ccccc2)c1)N1CCC(N2CCCC2)CC1 is at least 0.5.
Completion: F

Prompt: Textbook exercise: given the entry Cc1csc(-c2nnc(Nc3ccc(Oc4ncccc4-c4ccnc(N)n4)cc3)c3ccccc23)c1 , state whether its z-score is greater than or equal to 0.5.
Completion: T

Prompt: In plain terms: is recorded z-score at least 0.5 for O=S(=O)(O)CCSSCCS(=O)(=O)O ?
Completion: T

Prompt: Given the entry Cc1cccc(Nc2nc(-c3ccncc3)cs2)c1 , answer whether its z-score meets or surpasses 0.5.
Completion: T

Prompt: Is reported z-score greater than or equal to 0.5 here: CC[N+](C)(CC)CCC[n+]1c(-c2ccccc2)c2cc(N)ccc2c2ccc(N)cc21
Completion: T

Prompt: Check the entry CC(C)c1cc(C(C)C)c(CC(=O)NS(=O)(=O)Oc2c(C(C)C)cccc2C(C)C)c(C(C)C)c1 : does z-score equal or exceed 0.5?
Completion: T

* * *

assay.comment: compounds altering HSF1 focus formation in cells – imaging, Selleck Cancer Library (AID 1347162)
particulars: human cells, HSF1 nuclear foci imaging, at 10 µM; measured here: HSF1 foci SSMD mean
reported.endpoint: SSMD

Recorded SSMD, per entry:
molecule	SSMD
CN(C)C/C=C/C(=O)Nc1cc2c(Nc3ccc(F)c(Cl)c3)ncnc2cc1O[C@H]1CCOC1	-10.2
CN(C)CCN(C)C(=O)c1ccc(NC(=O)Nc2ccc(-c3nc(N4CCOCC4)c4ccn(CC(F)(F)F)c4n3)cc2)cc1	1.02
CNC(=O)[C@@H](NC(=O)[C@H](CC(C)C)[C@H](O)C(=O)NO)C(C)(C)C	3.3
COc1ccc(S(=O)(=O)Nc2cccnc2Nc2ccc(O)cc2)cc1	1.94
CC(C)CC(=O)Nc1n[nH]c2c1CN(C(=O)C1CCN(C)CC1)C2(C)C	-5.41

Prompt: For the molecule shown here, O=C(NCCCNc1nc(Nc2cccc(NC(=O)N3CCCC3)c2)ncc1I)c1cccs1 , give the reported SSMD.
Completion: -3.5

Prompt: What measured SSMD goes with CC(=O)Nc1nc(C)c(-c2ccc(Cl)c(S(=O)(=O)NCCO)c2)s1 ?
Completion: 2.06

Prompt: # input molecule: CN(C)CCCCSC(=N)N ; wanted: its SSMD
Completion: 1.03

Prompt: Value lookup for SSMD; key = CO[C@H]1C[C@@H]2CC[C@@H](C)[C@@](O)(O2)C(=O)C(=O)N2CCCC[C@H]2C(=O)O[C@H]([C@H](C)C[C@@H]2CC[C@@H](OC(=O)C(C)(CO)CO)[C@H](OC)C2)CC(=O)[C@H](C)/C=C(\C)[C@@H](O)[C@@H](OC)C(=O)[C@H](C)C[C@H](C)/C=C/C=C/C=C/1C
Completion: 0.578

Prompt: Could you share which SSMD value was measured for c1ccc2c(-c3cnn4cc(-c5ccc(N6CCNCC6)cc5)cnc34)ccnc2c1 ?
Completion: -18.9

Prompt: Would you kindly share the measured SSMD for O=C(O)c1ccc2c(c1)nc(Nc1cccc(Cl)c1)c1ccncc12 ?
Completion: 0.462

Prompt: Give its SSMD value. Item: O=C(O)CCC1CCC(c2cc(F)ccc2F)(S(=O)(=O)c2ccc(Cl)cc2)CC1 (centres undefined)
Completion: 1.51

Prompt: Can you share its SSMD? I mean this molecule: COc1ccc(-c2cc3nccn3c(Nc3ncccc3C(N)=O)n2)cc1OC
Completion: -0.302
